Consider the following compounds; for each one, report its GI50.
system: SNB-19 CNS; experiment: NCI tumour cell line growth inhibition, 48 h

Which GI50 value is on record for "Cc1ccc(C=C2C(Cl)=C(Cl)C(Cl)=C2Cl)cc1" ?
1.33 µM

Which GI50 value is on record for "COC(=O)c1cc2oc(/C=C3/SC(=S)N(N)C3=O)cc2n1Cc1ccccc1" ?
5.79 µM

Which GI50 value is on record for "Cc1cnc2oc3ccc(O)cc3c2c1-c1ccccc1" ?
34.3 µM

Which GI50 value is on record for "COc1cc(-c2nc3sc(C)cn3c2/C=C2\C(=O)Nc3ccccc32)c(Br)c(OC)c1OC" ?
23.9 µM

Which GI50 value is on record for "CC(C)(C)c1cc(/C=N/NC(=O)c2ccccc2NC(=O)c2cccs2)c(O)c(C(C)(C)C)c1" ?
0.916 µM

====

test system: OVCAR-8 ovarian; experiment: NCI tumour cell line growth inhibition, 48 h; in the data active means GI50 below about 0.43 µM; inactive means the rest
Response enum: active, inactive

Please indicate how the test categorized "O=C(c1ccc(C(F)(F)F)c(Cl)c1)N(Cc1ccc(Cl)cc1)c1ccc(-c2cc(C(F)(F)F)[nH]n2)c(O)c1" .
inactive

Please indicate how the test categorized "CN(C)CCCSc1ccccc1NC1=C(Cl)C(=O)C(Nc2ccccc2SCCCN(C)C)=C(Cl)C1=O" .
inactive

Please indicate how the test categorized "O=Nc1c(-c2c(O)[nH]c3cc(Br)ccc23)[nH]c2ccccc12" .
inactive

Please indicate how the test categorized "CC1(C)N=C(N)N=C(N)N1c1ccc(OCCCNC(=O)Nc2cccc(S(=O)(=O)F)c2)c(Cl)c1" .
inactive

Please indicate how the test categorized "COc1cc(/C=C/c2cc(/C=C/c3ccc(O)c(OC)c3)n(C(=O)Nc3ccccc3Cl)n2)ccc1O" .
active

Please indicate how the test categorized "COc1ccc(/C=C2\COc3ccc(O)c(O)c3C2=O)c(OC)c1OC" .
inactive

Please indicate how the test categorized "COc1ccc(C(=NN=C(N)N)c2ccc(OC)cc2)cc1" .
inactive

Please indicate how the test categorized "Cc1ccc(C=C2C(Cl)=C(Cl)C(Cl)=C2Cl)cc1" .
active

Please indicate how the test categorized "CC(C)(C)CC(C)(C)c1ccc(O)c(Cc2ccc(Cl)cc2Cl)c1" .
inactive

Please indicate how the test categorized "CC1(C)N=C(N)N=C(N)N1c1ccc(Cl)cc1" .
inactive

====

tested on: LOX IMVI melanoma; assay: NCI tumour cell line growth inhibition, 48 h
Observable: TGI (µM)
State just the number; it will be interpreted in µM.

Which TGI value is on record for "COC(=O)c1cc2oc(/C=C3/SC(=S)N(N)C3=O)cc2n1Cc1ccccc1" ?
16

Which TGI value is on record for "O=C1C=CC(=C(c2ccccc2)c2ccc(O)cc2)C=C1" ?
17.9

Which TGI value is on record for "Cc1cc2nc(C=C(C(F)(F)F)C(F)(F)F)sc2cc1C" ?
4.99

Which TGI value is on record for CC(C)(C)C1CCC2c3c([nH]c4ccccc34)C3C(=O)N(c4ccccc4[N+](=O)[O-])C(=O)C3C2C1 (configuration not stated) ?
31.4

====

Consider the following compounds; for each one, report its TGI.
tested on: COLO 205 colon; assay: NCI tumour cell line growth inhibition, 48 h

Which TGI value is on record for "Cc1ccc(C=C2C(Cl)=C(Cl)C(Cl)=C2Cl)cc1" ?
2.09 µM

Which TGI value is on record for "COc1cccc(/C=C/C(=O)c2sc(C(N)=S)nc2C)c1O" ?
> 100 µM

Which TGI value is on record for "O=C1C=CC(=C(c2ccccc2)c2ccc(O)cc2)C=C1" ?
49.7 µM

Which TGI value is on record for COc1ccc2[nH]c3c(c2c1)CC(=O)N1CCCC(CC3O)C1 (centres undefined) ?
> 100 µM

Which TGI value is on record for COc1ccc(N2C(=O)C3c4[nH]c5ccccc5c4C4CC(C)(C)CC(C)(C)C4C3C2=O)cc1 (centres undefined) ?
34.8 µM

Which TGI value is on record for "COc1cc(CNCCN2C(=O)c3ccc4c5c(ccc(c35)C2=O)C(=O)N(CCNCc2cc(OC)c(OC)c(OC)c2)C4=O)cc(OC)c1OC" ?
0.673 µM

Which TGI value is on record for "O=C1c2cccnc2C(=O)c2c1c(C(=O)OCCN1CCCCC1)c1ccccn21" ?
0.169 µM

Which TGI value is on record for "O=C(Cc1nc2ccccc2o1)C(=O)Nc1cccc(Cl)c1" ?
> 100 µM

Which TGI value is on record for "O=C(NNC1=NCCCN1)c1ccco1" ?
> 100 µM
